- MEASURED_TARGET: kinase domain protein of RC kinase (Homo sapiens)
- Sequence (Q56UN5 1061-1324 limits assumed): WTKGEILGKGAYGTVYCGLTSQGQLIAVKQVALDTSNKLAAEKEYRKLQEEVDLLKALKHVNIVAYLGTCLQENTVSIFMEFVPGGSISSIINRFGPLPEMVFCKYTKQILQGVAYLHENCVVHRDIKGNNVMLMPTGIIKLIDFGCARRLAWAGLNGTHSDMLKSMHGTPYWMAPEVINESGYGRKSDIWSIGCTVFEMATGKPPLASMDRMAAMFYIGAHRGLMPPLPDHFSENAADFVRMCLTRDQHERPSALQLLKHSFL
- MEASUREMENT_NOTES: Enzymatic assay for kinase inhibitory activity (Crebtide substrate, LANCE readout), kinase domain protein
- Assay type: biochemical
- EXPERIMENTAL_PARAMETERS: test compound 1 μM, ATP 1 μM, Crebtide 50 nM
MEASUREMENT_LABEL: inhibition at 1 µM

# example entries with known answers
What does the record list as inhibition at 1 µM for NC(=O)c1c(Nc2ccc(F)c(Cl)c2)n[nH]c1NCc1ccc(O)cc1 ?
≥ 50%

What does the record list as inhibition at 1 µM for NC(=O)c1c(Nc2ccc(NC(=O)c3ccc(F)cc3)cc2)n[nH]c1NCc1ccc(O)cc1 ?
≥ 50%

What does the record list as inhibition at 1 µM for NC(=O)c1c(Nc2cccc(Cl)c2)n[nH]c1NCc1ccoc1 ?
5 to 20%

What does the record list as inhibition at 1 µM for NC(=O)c1c(NCc2c(F)cccc2Cl)n[nH]c1NCc1ccc(O)cc1 ?
5 to 20%

---
What does the record list as inhibition at 1 µM for COc1cc(CNc2[nH]nc(NCc3ccc(O)cc3)c2C(N)=O)ccc1F ?
20 to 50%

What does the record list as inhibition at 1 µM for CC(=O)c1ccc(Nc2n[nH]c(NCc3ccc(O)cc3)c2C(N)=O)cc1 ?
≥ 50%

What does the record list as inhibition at 1 µM for NC(=O)c1c(Nc2cccnc2)n[nH]c1NCc1cccc(O)c1 ?
≥ 50%

What does the record list as inhibition at 1 µM for NC(=O)c1c(Nc2ccc(-c3ccccc3)cc2)n[nH]c1NCc1ccc(O)cc1 ?
≥ 50%

----------
- MEASURED_TARGET: kinase domain protein of RC kinase (Homo sapiens, UniProt Q56UN5)
- MEASUREMENT_NOTES: Enzymatic assay for kinase inhibitory activity (Crebtide substrate, LANCE readout), kinase domain protein
- Type: biochemical
- EXPERIMENTAL_PARAMETERS: test compound 1 μM, ATP 1 μM, Crebtide 50 nM
inhibition at 1 µM: recorded values

# example entries with known answers
What does the record list as inhibition at 1 µM for NC(=O)c1c(Nc2cccc(Cl)c2)n[nH]c1NCc1ccc(O)cc1 [Compound D1] ?
≥ 50%

What does the record list as inhibition at 1 µM for NC(=O)c1c(Nc2ccc3[nH]ncc3c2)n[nH]c1NCc1ccc(O)cc1 [Compound D76] ?
≥ 50%

What does the record list as inhibition at 1 µM for COc1ccc(CNc2[nH]nc(Nc3cccc(Cl)c3)c2C(N)=O)c(OC)c1OC [Compound D69] ?
5 to 20%

Now for the compound whose inhibition at 1 µM we want.
What does the record list as inhibition at 1 µM for N#Cc1c(Nc2cccc(Cl)c2)n[nH]c1NCc1ccc(OC(F)(F)F)c(F)c1 [Compound C10] ?
≤ 5%

----------
melting point: recorded values

# example entries with known answers
What does the record list as melting point for NC(=O)c1c(Nc2ccc(F)c(Cl)c2)n[nH]c1NCc1ccc(O)cc1 ?
178 to 183 °C

What does the record list as melting point for NC(=O)c1c(Nc2cccnc2)n[nH]c1NCc1ccccc1 ?
228 to 231 °C

What does the record list as melting point for NC(=O)c1c(Nc2cccc(Cl)c2)n[nH]c1NCc1ccc(O)cc1 [Compound D1] ?
196 to 200 °C

What does the record list as melting point for COc1ccccc1CNc1[nH]nc(Nc2cccc(Cl)c2)c1C(N)=O ?
225 to 227 °C

What does the record list as melting point for NC(=O)c1c(Nc2ccc(C(=O)O)cc2)n[nH]c1NCc1ccc(O)cc1 ?
285 to 290 °C

What does the record list as melting point for COc1ccc(CNc2[nH]nc(Nc3cccc(Cl)c3)c2C(N)=O)c(C)c1 ?
195 to 199 °C

---
What does the record list as melting point for NC(=O)c1c(Nc2ccc(N3CCOCC3)nc2)n[nH]c1NCc1ccc(O)cc1 ?
199 to 203 °C

What does the record list as melting point for NC(=O)c1c(Nc2ccc(N)cc2)n[nH]c1NCc1ccc(O)cc1 ?
190 to 193 °C

What does the record list as melting point for NC(=O)c1c(Nc2ccc(-c3cc(CO)c4ccccc4n3)cc2)n[nH]c1NCc1ccc(O)cc1 ?
216 to 220 °C

----------
- MEASURED_TARGET: kinase domain protein of RC kinase (Homo sapiens)
- MEASUREMENT_NOTES: Enzymatic assay for kinase inhibitory activity (Crebtide substrate, LANCE readout), kinase domain protein
- Format: biochemical
- EXPERIMENTAL_PARAMETERS: test compound 1 μM, ATP 1 μM, Crebtide 50 nM
MEASUREMENT_LABEL: inhibition at 1 µM

Enter reported inhibition at 1 µM observed with kinase domain protein of RC kinase (Homo sapiens) for N#Cc1c(Nc2cccc(Cl)c2)n[nH]c1NCc1ccc(N2CCOCC2)nc1
≤ 5%

Enter reported inhibition at 1 µM observed with kinase domain protein of RC kinase (Homo sapiens) for N#Cc1c(Nc2cccc(Cl)c2)n[nH]c1NCc1ccc(Cl)cc1O
5 to 20%

Now for the molecule whose inhibition at 1 µM we want.
Enter reported inhibition at 1 µM observed with kinase domain protein of RC kinase (Homo sapiens) for NC(=O)c1c(NCc2ccc(Cl)c(F)c2)n[nH]c1NCc1ccc(O)cc1
5 to 20%

----------
melting point: recorded values

# example entries with known answers
What does the record list as melting point for NC(=O)c1c(Nc2ccc(N3CCC(N4CCCC4)CC3)cc2)n[nH]c1NCc1ccc(O)cc1 [Compound D121] ?
241 to 244 °C

What does the record list as melting point for NC(=O)c1c(Nc2ccc(N3CCN(c4ncccn4)CC3)cc2)n[nH]c1NCc1ccc(O)cc1 [Compound D124] ?
219 to 227 °C

What does the record list as melting point for N#Cc1c(Nc2cccnc2)n[nH]c1NCc1ccc(O)cc1 [Compound C33] ?
216 to 222 °C

---
What does the record list as melting point for CC(C)(C)OC(=O)Nc1ccc(Nc2n[nH]c(NCc3ccc(O)cc3)c2C(N)=O)cc1 [Compound D135] ?
222 to 226 °C

What does the record list as melting point for CN(C)c1ccc(CNc2[nH]nc(Nc3cccnc3)c2C(N)=O)c2ccccc12 [Compound D42] ?
225 to 229 °C

What does the record list as melting point for CN1CCN(c2ccc(Nc3n[nH]c(NCc4ccc(O)cc4)c3C(N)=O)cc2Cl)CC1 [Compound D116] ?
230 to 236 °C

What does the record list as melting point for NC(=O)c1c(Nc2ccc(-c3cnco3)cc2)n[nH]c1NCc1ccc(O)cc1 [Compound D111] ?
258 to 266 °C

What does the record list as melting point for N#Cc1cccc(Nc2n[nH]c(NCc3ccc(O)cc3)c2C(N)=O)c1 [Compound D66] ?
189 to 194 °C

----------
melting point: recorded values

# example entries with known answers
What does the record list as melting point for N#Cc1c(Nc2cccc(Cl)c2)n[nH]c1NCc1ccc(Cl)cc1Cl [Compound C19] ?
171 to 174 °C

What does the record list as melting point for COc1cccc(Nc2n[nH]c(NCc3ccc(O)cc3)c2C(N)=O)c1 [Compound D65] ?
177 to 180 °C

What does the record list as melting point for CN(C)c1ccc(Nc2n[nH]c(NCc3ccc(O)cc3)c2C(N)=O)cc1 [Compound D126] ?
184 to 188 °C

What does the record list as melting point for NC(=O)c1c(Nc2ccc(N3CCN(C(=O)N4CCCCC4)CC3)cc2)n[nH]c1NCc1ccc(O)cc1 [Compound D110] ?
236 to 240 °C

What does the record list as melting point for Cc1cn(-c2ccc(Nc3n[nH]c(NCc4ccc(O)cc4)c3C(N)=O)cc2)cn1 [Compound D98] ?
257 to 260 °C

What does the record list as melting point for NC(=O)c1c(Nc2cccc(Cl)c2)n[nH]c1NCc1ccoc1 [Compound D97] ?
219 to 221 °C

---
What does the record list as melting point for COc1ccc(C(C)C)cc1CNc1[nH]nc(Nc2cccc(Cl)c2)c1C(N)=O [Compound D94] ?
184 to 194 °C

What does the record list as melting point for NC(=O)c1ccc(Nc2n[nH]c(NCc3ccc(O)cc3)c2C(N)=O)cc1 [Compound D63] ?
225 to 230 °C

----------
- MEASURED_TARGET: kinase domain protein of RC kinase (Homo sapiens)
- Sequence (Q56UN5 1061-1324 limits assumed): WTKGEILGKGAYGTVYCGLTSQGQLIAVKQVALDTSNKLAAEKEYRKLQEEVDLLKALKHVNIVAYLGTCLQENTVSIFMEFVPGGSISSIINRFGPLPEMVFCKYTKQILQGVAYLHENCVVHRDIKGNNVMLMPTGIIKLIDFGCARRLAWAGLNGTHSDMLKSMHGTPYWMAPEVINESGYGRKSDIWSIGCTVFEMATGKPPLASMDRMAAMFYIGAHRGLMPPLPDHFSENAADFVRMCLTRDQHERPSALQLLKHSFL
- MEASUREMENT_NOTES: Enzymatic assay for kinase inhibitory activity (Crebtide substrate, LANCE readout), kinase domain protein
- Type: biochemical
- EXPERIMENTAL_PARAMETERS: test compound 1 μM, ATP 1 μM, Crebtide 50 nM
MEASUREMENT_LABEL: inhibition at 1 µM

# example entries with known answers
What does the record list as inhibition at 1 µM for N#Cc1c(Nc2cccc(Cl)c2)n[nH]c1NCc1cccn1S(=O)(=O)c1ccccc1 [Compound C4] ?
5 to 20%

What does the record list as inhibition at 1 µM for COc1cc(CNc2[nH]nc(Nc3cccnc3)c2C(N)=O)ccc1F [Compound D40] ?
20 to 50%

What does the record list as inhibition at 1 µM for NC(=O)c1c(Nc2ccc(C(=O)O)cc2)n[nH]c1NCc1ccc(O)cc1 [Compound D165] ?
≥ 50%

What does the record list as inhibition at 1 µM for N#Cc1c(Nc2cccnc2)n[nH]c1NCc1ccc(O)cc1 [Compound C33] ?
20 to 50%

What does the record list as inhibition at 1 µM for NC(=O)c1c(Nc2ccc(N3CCN(C(=O)N4CCCCC4)CC3)cc2)n[nH]c1NCc1ccc(O)cc1 [Compound D110] ?
≥ 50%

---
What does the record list as inhibition at 1 µM for Cc1cn(-c2ccc(Nc3n[nH]c(NCc4ccc(O)cc4)c3C(N)=O)cc2)cn1 [Compound D98] ?
≥ 50%

What does the record list as inhibition at 1 µM for CCOc1ccc2ccccc2c1CNc1[nH]nc(Nc2cccnc2)c1C(N)=O [Compound D43] ?
20 to 50%

What does the record list as inhibition at 1 µM for NC(=O)c1c(Nc2ccc(Cl)c(Cl)c2)n[nH]c1NCc1ccc(O)cc1 [Compound D158] ?
≥ 50%
